Values compiled from PubChem BioAssay (NCATS).

system: Phospholipid hydroperoxide glutathione peroxidase GPX4 (Homo sapiens)
run.description: Primary qHTS Assay for Inhibitors of Recombinant Selenoprotein Glutathione Peroxidase 4 (GPX4) (AID 1845192); also: nearly all actives have a fitted effect of over 65% in size
applied.conditions: recombinant GPX4, GR-coupled NADPH fluorescence, 15 min; series mostly up to 50 µM
Records with an inconclusive call do not appear. Activity calls are given as the source filed them. Calls follow the shape of the dose curve; as a rule, active = well fitted inhibition curve with a large enough effect; inconclusive = small, poorly fitted or top-dose-only effect; inactive = flat fitted curve, though single readings scatter.
I would appreciate it if you answered using one of these outcomes: t = active, f = inactive

Some entries whose results are on file:
Cc1noc(-c2ccc(-c3ccc(C4(C(=O)O)CC4)cc3)cc2)c1NC(=O)O[C@H](C)c1ccccc1 t
CCCCCCCOc1ccc(CCC(N)(CO)CO)cc1C(F)(F)F f

Moving on to another molecule below.
For `CC1=C(c2ccc(O)cc2)[C@H](c2ccc(OCCN3CCCCC3)cc2)Oc2cc(O)ccc21` , which call appears in the assay record?
f
